setup_conditions: pH 7.45
readout: Lipid solubility (O/W), octanol/water partition coefficient
Give bare numbers.

Previously resolved entries follow.
CC(=O)[C@]1(O)Cc2c(O)c3c(c(O)c2[C@@H](O[C@H]2C[C@H](N)[C@H](O)[C@H](C)O2)C1)C(=O)c1ccccc1C3=O : 13.08
COc1cccc2c1C(=O)c1c(O)c3c(c(O)c1C2=O)C[C@@](O)(C(=O)CO)C[C@@H]3O[C@H]1C[C@H](N)[C@H](O)[C@H](C)O1 : 1.22
COc1cccc2c1C(=O)c1c(O)c3c(c(O)c1C2=O)C[C@@](O)(C(=O)CO)C[C@@H]3O[C@H]1C[C@H](N)[C@H](I)[C@H](C)O1 : 14.51
COc1cccc2c1C(=O)c1c(O)c3c(c(O)c1C2=O)C[C@@](O)(C(C)=O)C[C@@H]3O[C@H]1C[C@H](N)[C@H](O)[C@H](C)O1 : 7.85
CC[C@]1(O)C[C@H]2CN(CCc3c([nH]c4ccccc34)[C@@](C(=O)OC)(c3cc4c(cc3OC)N(C=O)[C@H]3[C@@](O)(C(=O)OC)[C@H](OC(C)=O)[C@]5(CC)C=CCN6CC[C@]43[C@@H]65)C2)C1 : 1.98

For the compound `O=C1c2c(O)ccc(O)c2C(=O)c2c(NCCNCCO)ccc(NCCNCCO)c21` , give its measured Lipid solubility (O/W), octanol/water partition coefficient value.
5.06
